Ref: ChEMBL document CHEMBL5131502

target: Cytochrome P450 3A4 (Homo sapiens, UniProt P08684)
Sequence (P08684 whole entry): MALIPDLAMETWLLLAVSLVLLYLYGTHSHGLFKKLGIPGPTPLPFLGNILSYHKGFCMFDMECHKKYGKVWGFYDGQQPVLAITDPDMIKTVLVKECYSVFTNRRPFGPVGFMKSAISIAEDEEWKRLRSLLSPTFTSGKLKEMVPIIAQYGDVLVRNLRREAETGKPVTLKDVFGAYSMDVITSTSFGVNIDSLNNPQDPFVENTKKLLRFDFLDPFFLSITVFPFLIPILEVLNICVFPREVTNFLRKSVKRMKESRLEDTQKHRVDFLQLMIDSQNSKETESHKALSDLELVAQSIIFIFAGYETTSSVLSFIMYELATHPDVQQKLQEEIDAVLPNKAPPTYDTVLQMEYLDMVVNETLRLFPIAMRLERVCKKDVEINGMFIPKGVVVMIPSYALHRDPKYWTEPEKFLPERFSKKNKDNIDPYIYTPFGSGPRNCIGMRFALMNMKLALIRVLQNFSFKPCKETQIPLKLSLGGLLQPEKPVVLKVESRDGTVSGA
reported-metric: IC50

Item: CN1CCC(N(Cc2ccc(F)cn2)C(=O)NCc2ccc(OCC(F)(F)F)cc2)CC1 | IC50: > 100 µM

---

target: 5-hydroxytryptamine receptor 2A (Homo sapiens); assay: Antagonist activity at 5-HT2A receptor (unknown origin) expressed in CHO-K1 cells assessed as reduction in intracellular Ca2+ mobilization incubated for 15 mins by FLIPR assay; type: functional, cell-based
Sequence (P28223 whole entry): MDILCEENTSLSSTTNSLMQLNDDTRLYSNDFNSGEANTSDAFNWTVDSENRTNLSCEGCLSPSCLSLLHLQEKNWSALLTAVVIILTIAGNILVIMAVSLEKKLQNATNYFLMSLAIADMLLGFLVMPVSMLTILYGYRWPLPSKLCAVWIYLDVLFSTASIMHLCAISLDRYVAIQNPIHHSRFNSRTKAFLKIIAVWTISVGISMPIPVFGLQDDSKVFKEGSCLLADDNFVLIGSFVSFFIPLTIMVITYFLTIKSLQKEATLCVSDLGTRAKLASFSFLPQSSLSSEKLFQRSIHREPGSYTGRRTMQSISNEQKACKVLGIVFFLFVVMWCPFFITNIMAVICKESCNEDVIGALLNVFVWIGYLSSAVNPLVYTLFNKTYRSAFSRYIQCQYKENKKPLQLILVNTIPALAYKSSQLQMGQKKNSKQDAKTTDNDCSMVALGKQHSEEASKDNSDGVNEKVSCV
Can you tell me pIC50 for the items I'm about to list?
// pIC50 here means minus log10 of the molar concentration (mol/L)

Item: CC(C)COc1ccc(CNC(=O)N(Cc2ccc(F)cc2)C2CC(N(C)C)C2)cc1 (centres undefined) | pIC50: 6.86

Item: CC(C)Cc1ccc(CNC(=O)N(Cc2ccc(F)cn2)C2CCN(C)CC2)cc1 | pIC50: 7.58

Item: CN1CCC(N(Cc2ccc(F)cn2)C(=O)NCc2ccc(OCCCF)cc2)CC1 | pIC50: 8.71

Item: CN1CCC(N(Cc2ccc(F)cn2)C(=O)NCc2ccc(OCC(F)(F)F)c(C(F)(F)F)c2)CC1 | pIC50: 7.56

Item: CN1CCC(N(Cc2ccc(F)cn2)C(=O)NCc2ccc(CCC(F)(F)F)cc2)CC1 | pIC50: 7.74

Item: CC(C)COc1ccc(CNC(=O)N(Cc2ccc(F)cc2)C2CCN(CCN(C)C)CC2)cc1 | pIC50: 7.12

Item: CN1CCC(N(Cc2ccc(F)cn2)C(=O)NCc2ccc(OC(F)(F)C(F)(F)F)cc2)CC1 | pIC50: 7.48

---

reported-metric: IC50

CN1CCC(N(Cc2ccc(F)cn2)C(=O)NCc2ccc(OCC(F)(F)F)cc2)CC1 tested on UniProt:P10635 gave IC50: > 100 µM

---

test: Metabolic stability in human liver microsomes assessed as compound remaining at 100 uM […] followed by NADPH addition by LC/MS analysis; type: ADME, Microsome; conditions: read-out: Stability
reported-metric: remaining at 100 µM (%)
The reply should contain only the number, in %.

Item: CN1CCC(N(Cc2ccc(F)cn2)C(=O)NCc2ccc(OCC(F)(F)F)cc2)CC1 | remaining at 100 µM: 89.2

Item: CN1CCC(N(Cc2ccc(F)cn2)C(=O)NCc2ccc(OCCCF)cc2)CC1 | remaining at 100 µM: 87.8

Item: CC(C)COc1ccc(CNC(=O)N(Cc2ccc(F)cc2)C2CCN(C)CC2)cc1 | remaining at 100 µM: 70.7

Item: CN1CCC(N(Cc2ccc(F)cn2)C(=O)NCc2ccc3c(c2)CC(C)(C)O3)CC1 | remaining at 100 µM: 66.8

---

test: Apparent volume of distribution during terminal state in Sprague-Dawley rat at 3 mg/kg, IG measured upto 24 hrs by LC-MS/MS analysis; assay type: ADME, organism-based; conditions: in vivo, po, read-out: Vz/F
reported-metric: Vd/F
Field note: include the unit after the figure.

Item: CC(C)COc1ccc(CNC(=O)N(Cc2ccc(F)cc2)C2CCN(C)CC2)cc1.O=C(O)C(O)C(O)C(=O)O | Vd/F: 0.155 L/kg

---

test: Plasma protein binding in monkey at 10 uM; format: ADME, cell-free, Macaca mulatta; conditions: rhesus monkey, read-out: PPB (converted)
Can you tell me fraction unbound at 10 µM for the items I'm about to list?
Give only the figure.

Item: CC(C)COc1ccc(CNC(=O)N(Cc2ccc(F)cc2)C2CCN(C)CC2)cc1 [PIMAVANSERIN] | fraction unbound at 10 µM: 0.053

Item: CN1CCC(N(Cc2ccc(F)cn2)C(=O)NCc2ccc(OCC(F)(F)F)cc2)CC1 | fraction unbound at 10 µM: 0.383

---

target: Cytochrome P450 2C19 (Homo sapiens)
Sequence (P33261 whole entry): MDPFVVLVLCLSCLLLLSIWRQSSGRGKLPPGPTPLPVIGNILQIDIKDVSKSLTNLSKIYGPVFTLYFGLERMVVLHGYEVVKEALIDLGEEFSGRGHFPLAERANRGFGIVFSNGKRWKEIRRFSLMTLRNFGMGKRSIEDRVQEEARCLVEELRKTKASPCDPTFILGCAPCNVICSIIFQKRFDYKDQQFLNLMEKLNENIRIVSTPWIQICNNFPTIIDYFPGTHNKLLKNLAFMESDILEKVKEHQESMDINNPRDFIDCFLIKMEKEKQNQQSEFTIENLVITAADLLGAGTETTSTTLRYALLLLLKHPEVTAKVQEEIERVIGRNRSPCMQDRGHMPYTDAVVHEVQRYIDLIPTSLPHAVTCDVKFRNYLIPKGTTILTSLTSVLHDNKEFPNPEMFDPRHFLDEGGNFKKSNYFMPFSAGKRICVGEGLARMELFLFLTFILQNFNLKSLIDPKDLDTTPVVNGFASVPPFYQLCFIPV
reported-metric: pIC50
// pIC50 here means minus log10 of the molar concentration (mol/L)

Item: CN1CCC(N(Cc2ccc(F)cn2)C(=O)NCc2ccc(OCC(F)(F)F)cc2)CC1 | pIC50: 4.20

---

assay: AUC(0 to 24 hrs) in human at 80 mg/kg/day by UHPLC/FT-ICR-MS analysis; format: ADME, organism-based; set-up: time < 24 hr, dose 80 mg/kg/day; settings: in vivo
reported-metric: AUC at 24 h (ng·h/mL)
The reply should contain only the number, in ng·h/mL.

Item: CC(C)COc1ccc(CNC(=O)N(Cc2ccc(F)cc2)C2CCN(C)CC2)cc1 [PIMAVANSERIN] | AUC at 24 h: 836

---

assay: Metabolic stability in human liver microsomes assessed as half life at 100 uM preincubated for 10 mins followed by NADPH addition by LC/MS analysis; format: ADME, Microsome
reported-metric: half-life at 100 µM (h)
The reply should contain only the number, in h.

Item: CN1CCC(N(Cc2ccc(F)cn2)C(=O)NCc2ccc3c(c2)CC(C)(C)O3)CC1 | half-life at 100 µM: 1.75

Item: CC(C)COc1ccc(CNC(=O)N(Cc2ccc(F)cc2)C2CCN(C)CC2)cc1 [PIMAVANSERIN] | half-life at 100 µM: 1.96

---

assay: Half life in Sprague-Dawley rat at 3 mg/kg, IG measured upto 24 hrs by LC-MS/MS analysis; type: ADME, organism-based; conditions: in vivo, po
reported-metric: half-life (h)
The reply should contain only the number, in h.

Item: CC(C)COc1ccc(CNC(=O)N(Cc2ccc(F)cc2)C2CCN(C)CC2)cc1.O=C(O)C(O)C(O)C(=O)O | half-life: 1.28

---

assay: Half life in Sprague-Dawley rat at 2 mg/kg, IG administered as single dose measured upto 24 hrs by LC-MS/MS analysis; format: ADME, organism-based; conditions: in vivo, po
reported-metric: half-life
Field note: include the unit after the figure.

Item: CN1CCC(N(Cc2ccc(F)cn2)C(=O)NCc2ccc(OCC(F)(F)F)cc2)CC1.O=C(O)C(O)C(O)C(=O)O | half-life: 4.72 h

---

target: UniProt:Q12809; test: Inhibition of hERG potassium channel expressed in CHO cells at -80 mV holding potential by whole cell patch clamp assay
Sequence (Q12809 whole entry): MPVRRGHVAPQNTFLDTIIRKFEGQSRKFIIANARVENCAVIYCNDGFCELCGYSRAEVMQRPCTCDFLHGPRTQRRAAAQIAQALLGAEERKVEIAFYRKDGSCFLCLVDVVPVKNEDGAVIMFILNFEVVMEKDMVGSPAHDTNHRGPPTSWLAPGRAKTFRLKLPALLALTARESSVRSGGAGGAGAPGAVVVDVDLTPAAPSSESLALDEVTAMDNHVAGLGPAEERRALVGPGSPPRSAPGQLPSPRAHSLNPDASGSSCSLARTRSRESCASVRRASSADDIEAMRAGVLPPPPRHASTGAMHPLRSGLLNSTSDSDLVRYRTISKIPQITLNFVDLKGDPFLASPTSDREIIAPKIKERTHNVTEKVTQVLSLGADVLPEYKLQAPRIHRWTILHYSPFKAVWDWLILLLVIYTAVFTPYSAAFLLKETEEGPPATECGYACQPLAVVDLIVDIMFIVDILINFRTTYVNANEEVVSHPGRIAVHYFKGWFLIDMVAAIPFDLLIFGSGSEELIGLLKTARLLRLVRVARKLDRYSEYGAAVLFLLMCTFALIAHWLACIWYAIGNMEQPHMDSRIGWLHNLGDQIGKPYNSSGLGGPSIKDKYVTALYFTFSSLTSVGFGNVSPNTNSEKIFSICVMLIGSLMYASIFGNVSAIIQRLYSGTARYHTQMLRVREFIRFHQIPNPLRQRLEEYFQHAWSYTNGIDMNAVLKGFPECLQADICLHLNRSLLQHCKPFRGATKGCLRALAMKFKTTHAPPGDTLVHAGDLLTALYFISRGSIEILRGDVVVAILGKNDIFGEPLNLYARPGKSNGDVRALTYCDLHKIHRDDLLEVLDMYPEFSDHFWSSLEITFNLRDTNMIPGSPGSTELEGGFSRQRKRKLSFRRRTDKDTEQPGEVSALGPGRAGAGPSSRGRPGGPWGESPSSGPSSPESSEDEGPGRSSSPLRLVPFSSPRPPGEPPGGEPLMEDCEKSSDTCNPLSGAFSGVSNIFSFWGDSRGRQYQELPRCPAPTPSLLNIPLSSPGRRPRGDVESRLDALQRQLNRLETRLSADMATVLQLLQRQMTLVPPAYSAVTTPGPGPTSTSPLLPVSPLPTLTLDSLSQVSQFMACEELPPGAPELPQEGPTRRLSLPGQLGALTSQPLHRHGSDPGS
reported-metric: IC50

Item: CN1CCC(N(Cc2ccc(F)cn2)C(=O)NCc2ccc3c(c2)CC(C)(C)O3)CC1 | IC50: 3610 nM

Item: CN1CCC(N(Cc2ccc(F)cn2)C(=O)NCc2ccc(OCC(F)(F)F)cc2)CC1 | IC50: 1100 nM

---

assay: Half life in Sprague-Dawley rat at 4 mg/kg, IG administered as single dose measured upto 24 hrs by LC-MS/MS analysis; type: ADME, organism-based; conditions: in vivo, po
reported-metric: half-life (h)
The reply should contain only the number, in h.

Item: CN1CCC(N(Cc2ccc(F)cn2)C(=O)NCc2ccc(OCC(F)(F)F)cc2)CC1.O=C(O)C(O)C(O)C(=O)O | half-life: 4.44

---

assay: Metabolic stability in dog liver microsomes assessed as compound remaining at 100 uM […] followed by NADPH addition by LC/MS analysis; assay type: ADME, Canis lupus familiaris, Microsome; details: read-out: Stability
reported-metric: remaining at 100 µM (%)
The reply should contain only the number, in %.

Item: CC(C)COc1ccc(CNC(=O)N(Cc2ccc(F)cc2)C2CCN(C)CC2)cc1 [PIMAVANSERIN] | remaining at 100 µM: 29.7

Item: CN1CCC(N(Cc2ccc(F)cn2)C(=O)NCc2ccc(OCC(F)(F)F)cc2)CC1 | remaining at 100 µM: 76.4

---

assay: Aqueous solubility of compound at pH 7.4; format: physicochemical
reported-metric: solubility (µg/mL)
The reply should contain only the number, in µg/mL.

Item: CN1CCC(N(Cc2ccc(F)cn2)C(=O)NCc2ccc(OCC(F)(F)F)cc2)CC1 | solubility: 710

Item: CC(C)COc1ccc(CNC(=O)N(Cc2ccc(F)cc2)C2CCN(C)CC2)cc1 | solubility: 21

---

Can you tell me CLint scaled at 100 µM for the items I'm about to list?
assay: Metabolic stability in Sprague-Dawley rat liver microsomes assessed as intrinsic clearance at 100 uM preincubated for 10 mins followed by NADPH addition by LC/MS analysis; assay type: ADME, Microsome; conditions: read-out: CLH

Item: CN1CCC(N(Cc2ccc(F)cn2)C(=O)NCc2ccc(OCC(F)(F)F)cc2)CC1 | CLint scaled at 100 µM: 34.1 mL/min/kg

Item: CN1CCC(N(Cc2ccc(F)cn2)C(=O)NCc2ccc(OCCCF)cc2)CC1 | CLint scaled at 100 µM: < 13.4 mL/min/kg

Item: CC(C)COc1ccc(CNC(=O)N(Cc2ccc(F)cc2)C2CCN(C)CC2)cc1 [PIMAVANSERIN] | CLint scaled at 100 µM: 23.2 mL/min/kg

Item: CN1CCC(N(Cc2ccc(F)cn2)C(=O)NCc2ccc3c(c2)CC(C)(C)O3)CC1 | CLint scaled at 100 µM: 37.1 mL/min/kg
